- Settings: in methyl acetate, 293.15 K
Quantity: solubility (mole fraction)
When you answer, write just the number.

Exam item: Suppose we examine the compound C#C[C@]1(O)CC[C@H]2[C@@H]3CCC4=CC(=O)CC[C@@H]4[C@H]3C(=C)C[C@@]21CC ; what solubility (mole fraction) value has been reported?
Marked response: 0.017

----------
- Settings: in acetone, 273.15 K
Quantity: solubility (mole fraction)
Answer with a bare number; do not write a unit.

Exam item: Record request: solubility (mole fraction) value, item C#C[C@]1(O)CC[C@H]2[C@@H]3CCC4=CC(=O)CC[C@@H]4[C@H]3C(=C)C[C@@]21CC
Marked response: 0.012

----------
- Settings: in DMF, 288.15 K
Quantity: solubility (mole fraction)

Exam item: Need solubility (mole fraction) of C#C[C@]1(O)CC[C@H]2[C@@H]3CCC4=CC(=O)CC[C@@H]4[C@H]3C(=C)C[C@@]21CC , thanks.
Marked response: 0.0865

----------
- Settings: in ethanol, 298.15 K
Quantity: solubility (mole fraction)
Please give only the number in your answer, with no unit.

Exam item: I'd like to know its solubility (mole fraction). The compound in question is C#C[C@]1(O)CC[C@H]2[C@@H]3CCC4=CC(=O)CC[C@@H]4[C@H]3C(=C)C[C@@]21CC
Marked response: 0.00412

----------
- Settings: in n-butanol, 323.15 K
Quantity: solubility (mole fraction)
Answer with the value's number alone.

Exam item: Need solubility (mole fraction), item C#C[C@]1(O)CC[C@H]2[C@@H]3CCC4=CC(=O)CC[C@@H]4[C@H]3C(=C)C[C@@]21CC
Marked response: 0.0227

----------
- Settings: in n-butanol, 308.15 K
Quantity: solubility (mole fraction)
Just the number, please, no unit attached.

Exam item: What solubility (mole fraction) value was documented for this compound, C#C[C@]1(O)CC[C@H]2[C@@H]3CCC4=CC(=O)CC[C@@H]4[C@H]3C(=C)C[C@@]21CC ?
Marked response: 0.0148

----------
- Settings: in DMF, 323.15 K
Quantity: solubility (mole fraction)
API doc: respond with a numeric literal and nothing else, no unit.

Exam item: Item C#C[C@]1(O)CC[C@H]2[C@@H]3CCC4=CC(=O)CC[C@@H]4[C@H]3C(=C)C[C@@]21CC has what recorded solubility (mole fraction)?
Marked response: 0.115

----------
- Settings: in isopropanol, 323.15 K
Quantity: solubility (mole fraction)

Exam item: GET /values?readout=solubility (mole fraction)&item= C#C[C@]1(O)CC[C@H]2[C@@H]3CCC4=CC(=O)CC[C@@H]4[C@H]3C(=C)C[C@@]21CC
Marked response: 0.0209

----------
- Settings: in n-propanol, 278.15 K
Quantity: solubility (mole fraction)

Exam item: Give the measured solubility (mole fraction) of C#C[C@]1(O)CC[C@H]2[C@@H]3CCC4=CC(=O)CC[C@@H]4[C@H]3C(=C)C[C@@]21CC .
Marked response: 0.00514

----------
- Settings: in water, 283.15 K
Quantity: solubility (mole fraction)
Answer with the value's number alone.

Exam item: Data request, read-out solubility (mole fraction), for C#C[C@]1(O)CC[C@H]2[C@@H]3CCC4=CC(=O)CC[C@@H]4[C@H]3C(=C)C[C@@]21CC
Marked response: 1.92e-05

----------
- Settings: in n-butanol, 313.15 K
Quantity: solubility (mole fraction)

Exam item: Given C#C[C@]1(O)CC[C@H]2[C@@H]3CCC4=CC(=O)CC[C@@H]4[C@H]3C(=C)C[C@@]21CC , state its recorded solubility (mole fraction).
Marked response: 0.0171
